Assay: protein stability index of a GFP-peptide fusion (yeast GPS) (PSI 1-4); higher = more stable; sorted into four equal gates, so the index is relative within each strain
Details: san1∆
Assay Endpoint: protein stability index
Please reply with the value in numeric form only.

Known results for sequences:
Ordered Residues	Measured Result
NILNMSMNNDFQQQQQQ [PGD1]	2.83
NQGVNELKYQRSLRATA [RPL15A]	1.61
ISLAVEGEPVNSPNYFV [COR1]	2.83

Which protein stability index is listed for TENVAQARIILNHILEK [YGR119C/NUP57] ? 3.14

Which protein stability index is listed for GVDPTGSHLFSIHAHGS [PUP1] ? 2.5

Which protein stability index is listed for HLCSGILSSVNRTVLLK [SRB8] ? 1.41

Which protein stability index is listed for RTMDDIKDSVREVGTKF [ECM29] ? 3.27

Which protein stability index is listed for SGQTFAYGVLDSNYKWD [PRE2] ? 1.85

FYI, the data here is from the supplement of paper PMC9732359.
